# System Under Test: PLA2G7 (Mus musculus, UniProt Q60963)
# Construct: Proteomes (mouse brain membrane fraction or cell lysates); from tissue; host or cells: mouse brain membrane fraction (or cell lysates, not specified)
# Sequence (Q60963 22-440): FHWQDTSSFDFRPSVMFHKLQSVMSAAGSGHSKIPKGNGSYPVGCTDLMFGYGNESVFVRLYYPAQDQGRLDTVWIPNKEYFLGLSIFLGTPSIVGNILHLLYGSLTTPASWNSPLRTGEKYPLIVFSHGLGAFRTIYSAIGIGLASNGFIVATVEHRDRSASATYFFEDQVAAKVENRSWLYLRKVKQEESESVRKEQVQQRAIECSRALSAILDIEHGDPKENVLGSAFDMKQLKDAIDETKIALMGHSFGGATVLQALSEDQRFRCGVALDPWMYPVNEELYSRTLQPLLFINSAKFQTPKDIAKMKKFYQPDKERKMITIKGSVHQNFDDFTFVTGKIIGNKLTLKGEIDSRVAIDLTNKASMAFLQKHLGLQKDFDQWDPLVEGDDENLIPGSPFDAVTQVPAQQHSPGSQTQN
# Experiment Description: In vitro competitive activity-based protein profiling (gel-based, FP-Rh or HT-01 probe)
# Type: biochemical
# Recorded Conditions: 10 μM inhibitor; read-out: % Inhibition at 10 μM, D = PLA2G7
Observed Property: inhibition at 10 µM

Asked: Return reported inhibition at 10 µM. Input molecule: Cc1cnn(C(=O)NCCCc2ccccc2)c1 [Example 32]
Given back: < 25%

Asked: Retrieve inhibition at 10 µM measured for N#Cc1cnn(C(=O)Nc2ccc3ccccc3c2)c1 [Example 42] and print it.
Given back: < 25%

Asked: Kindly indicate its recorded inhibition at 10 µM. Item: O=C(N1CCN(Cc2ccc(-c3ccccc3)cc2Cl)CC1)n1cc(C(F)(F)F)cn1 [Example 143]
Given back: > 75%

Asked: Respond only with inhibition at 10 µM recorded for CCN(Cc1ccccc1OC)C(=O)n1cc(Cl)cn1 [Example 127]
Given back: < 25%

Asked: Tell me inhibition at 10 µM reported for O=C(c1cnn(C(=O)N2CCN(Cc3ccncn3)CC2)c1)N1CCCCC1 [Example 73]
Given back: > 75%

Asked: // Input: O=C(c1cnn(C(=O)N2CCN(Cc3ccc4c(c3)OCO4)CC2)c1)N1CCCC1 [Example 78] . Output its inhibition at 10 µM only.
Given back: > 75%

Asked: Tell me inhibition at 10 µM reported for CS(=O)(=O)N1CCCN(C(=O)n2cc(Cl)cn2)CC1 [Example 189]
Given back: < 25%

Asked: # return recorded inhibition at 10 µM for input O=C(N1CCN(Cc2ccc(-c3ccccc3)cc2OCc2ccccc2)CC1)n1cc(C(F)(F)F)cn1 [Example 147]
Given back: > 75%

Asked: For Cc1cc(N2CCN(C(=O)n3cc(C(F)(F)F)cn3)CC2)c2ccccc2n1 [Example 210] , write its inhibition at 10 µM.
Given back: > 75%

* * *

Give measured inhibition at 1 µM for each item. Keep answers brief.
# System Under Test: PLA2G7 (Mus musculus, UniProt Q60963)
# Construct: Proteomes (mouse brain membrane fraction or cell lysates); from tissue; host or cells: mouse brain membrane fraction (or cell lysates, not specified)
# Experiment Description: In vitro competitive activity-based protein profiling (gel-based, FP-Rh or HT-01 probe)
# Assay type: biochemical
# Recorded Conditions: 1 μM inhibitor; read-out: % Inhibition at 1 μM, D = PLA2G7

Asked: Could you please provide reported inhibition at 1 µM for COc1cc(-c2ccccc2)ccc1CN1CCN(C(=O)n2cc(Cl)cn2)CC1 ? Thanks!
Given back: < 25%

Asked: Please indicate inhibition at 1 µM recorded for O=C(N1CCN(CC2CC2)CC1)n1cc(Cl)cn1
Given back: < 25%

Asked: # return recorded inhibition at 1 µM for entry O=C(N1CCN(Cc2ccc3ccccc3c2)CC1)n1cccn1
Given back: < 25%

Asked: Please report inhibition at 1 µM for the following molecule: Cc1cc(-c2ccccc2)ccc1CN1CCN(C(=O)n2cc(C(=O)N3CCCCC3)cn2)CC1
Given back: > 75%

Asked: Identify measured inhibition at 1 µM associated with CC(C)(C)OC(=O)N1CCN(C(=O)n2cc(C#N)cn2)CC1
Given back: > 75%

Asked: Kindly indicate its recorded inhibition at 1 µM. Item: O=C(c1cnn(C(=O)N2CCN(Cc3ccncc3)CC2)c1)N1CCC1
Given back: < 25%

Asked: Return value of inhibition at 1 µM for input CCN(Cc1ccc(C)cc1)C(=O)n1cc(Cl)cn1 , no commentary.
Given back: < 25%

Asked: Please report inhibition at 1 µM for the following molecule: N#Cc1cnn(C(=O)NCCCc2ccccc2)c1
Given back: < 25%

Asked: Please list inhibition at 1 µM recorded for the molecule O=C(N1CCN(c2cccc(N3CCCC3)c2)CC1)n1cc(C(F)(F)F)cn1
Given back: > 75%
